B1: TPR t1 (parent)
chain: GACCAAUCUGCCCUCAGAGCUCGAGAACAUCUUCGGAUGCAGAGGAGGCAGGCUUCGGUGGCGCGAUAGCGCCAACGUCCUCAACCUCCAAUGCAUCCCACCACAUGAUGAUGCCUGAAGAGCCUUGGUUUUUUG

Variants of: B1
protocol_summary: polymerase ribozyme fitness, log enrichment relative to wild type (log ratio); higher = more active; in vitro selection for triplet polymerase activity
Rule: polymerase ribozyme fitness (log ratio) of -4 or more gives Yes; anything lower gives No.

IN: Reported polymerase ribozyme fitness (log ratio) reaches at least -4 for G19A C114A A121U ?
OUT: Yes

IN: Reported polymerase ribozyme fitness (log ratio) reaches at least -4 for G17A G39U C49G U78C G117U ?
OUT: No

IN: Reported polymerase ribozyme fitness (log ratio) reaches at least -4 for G120C G127A ?
OUT: Yes

IN: Reported polymerase ribozyme fitness (log ratio) reaches at least -4 for U32C G48U G69A ?
OUT: Yes

IN: Reported polymerase ribozyme fitness (log ratio) reaches at least -4 for C22A G44U G93A C124U ?
OUT: No

IN: Reported polymerase ribozyme fitness (log ratio) reaches at least -4 for C70U C115A ?
OUT: Yes

IN: Reported polymerase ribozyme fitness (log ratio) reaches at least -4 for G39C C72U ?
OUT: Yes

IN: Reported polymerase ribozyme fitness (log ratio) reaches at least -4 for G25A A26G A46U G63A A118C G120A ?
OUT: No

IN: Reported polymerase ribozyme fitness (log ratio) reaches at least -4 for C15U G57A G117U ?
OUT: Yes

IN: Reported polymerase ribozyme fitness (log ratio) reaches at least -4 for U38G G128C ?
OUT: Yes

IN: Reported polymerase ribozyme fitness (log ratio) reaches at least -4 for U55C C56U G69C C85U ?
OUT: No

IN: Reported polymerase ribozyme fitness (log ratio) reaches at least -4 for C34A G44A G48A G61U A121C C123G ?
OUT: No

IN: Reported polymerase ribozyme fitness (log ratio) reaches at least -4 for G39A C80A C98U U133A ?
OUT: No

IN: Reported polymerase ribozyme fitness (log ratio) reaches at least -4 for C12A G48C U116G ?
OUT: No

IN: Reported polymerase ribozyme fitness (log ratio) reaches at least -4 for U112A A121U U125A ?
OUT: Yes

IN: Reported polymerase ribozyme fitness (log ratio) reaches at least -4 for U21A A37C U38G U112G G122C C124U G135A ?
OUT: Yes

IN: Reported polymerase ribozyme fitness (log ratio) reaches at least -4 for G65U G120U ?
OUT: No

IN: Reported polymerase ribozyme fitness (log ratio) reaches at least -4 for A50C G71A U133C ?
OUT: Yes

IN: Reported polymerase ribozyme fitness (log ratio) reaches at least -4 for A24G C97U G120U ?
OUT: Yes

IN: Reported polymerase ribozyme fitness (log ratio) reaches at least -4 for A41C G63C ?
OUT: Yes

IN: Reported polymerase ribozyme fitness (log ratio) reaches at least -4 for A2U C28U C49A C101G U106A ?
OUT: No
